systemTested: recombinant human BACE1 (rhBACE1) (human, UniProt P56817 22-457, limits assumed)
Sequence (P56817 22-457 limits assumed): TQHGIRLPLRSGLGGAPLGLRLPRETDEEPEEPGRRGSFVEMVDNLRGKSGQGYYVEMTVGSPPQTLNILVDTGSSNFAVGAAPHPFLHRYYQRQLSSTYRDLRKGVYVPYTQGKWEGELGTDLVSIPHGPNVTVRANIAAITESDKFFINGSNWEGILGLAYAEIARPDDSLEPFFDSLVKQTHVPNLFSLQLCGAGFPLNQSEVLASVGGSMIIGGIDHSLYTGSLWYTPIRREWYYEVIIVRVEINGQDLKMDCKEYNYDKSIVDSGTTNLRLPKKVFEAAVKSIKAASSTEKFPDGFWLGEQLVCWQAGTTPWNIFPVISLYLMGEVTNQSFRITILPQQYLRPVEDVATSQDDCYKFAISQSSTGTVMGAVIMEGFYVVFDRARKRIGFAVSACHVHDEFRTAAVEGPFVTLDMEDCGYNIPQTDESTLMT
methodDescription: FP competition binding; 12 nM rhBACE1, competitor probe 5-TAMRA-BACE020
Positions of bridges follow the written chain, without caps; N, C: chain ends.
Here, each record is paired with measured IC50 data.
// note: answer is a bare numeric in nM

In the examples that follow, each entry is paired with its recorded IC50.
* Ac-ESMYCRLLGIGCG-NH2 (disulfide 5-12; SMILES CC[C@H](C)[C@@H]1NC(=O)CNC(=O)[C@H](CC(C)C)NC(=O)[C@H](CC(C)C)NC(=O)[C@H](CCCNC(=N)N)NC(=O)[C@@H](NC(=O)[C@H](Cc2ccc(O)cc2)NC(=O)[C@H](CCSC)NC(=O)[C@H](CO)NC(=O)[C@H](CCC(=O)O)NC(C)=O)CSSC[C@@H](C(=O)NCC(N)=O)NC(=O)CNC1=O, Minimal version of BACE020 with full activity) [BACE030] | 23
* Ac-EESMYCRLLGIGCG-NH2 (disulfide 6-13 (inferred), N-terminal truncation of BACE020) [BACE029] | 12

Note: attention shifts to another entry.
Quick check: IC50 of Ac-NEESMYCRLLAIGCG-NH2 (disulfide 7-14 (inferred), also called BACE020 Gly11 to Ala) [BACE051] ?
36
